Data credit: ChEMBL document CHEMBL3988442

# method_description: microbe, parasite or virus in culture
# measurement_conditions: Mycobacterium tuberculosis, 96 h, read-out: pIC50 (converted)
observation_type: IC50

# molecule, observation_type, value_reported
data = [
    ("CCN(CC)c1ccc(C(=O)Nc2cc[nH]n2)cn1", "IC50", "> 501 µM"),
    ("Cn1cc(NC(=O)CNC(=O)N2CCN(c3ccccc3)CC2)cn1", "IC50", "> 50.1 µM"),
    ("COCCCN1CCN(c2ccccc2OC)CC1", "IC50", "> 501 µM"),
    ("CNC(=O)C1CN(C(=O)c2cccs2)CCN(S(C)(=O)=O)C1 (stereo not given)", "IC50", "> 50.1 µM"),
    ("CC(C)c1nnc(CN2CC(n3cccn3)Cc3ccccc32)o1 (stereo not given)", "IC50", "> 50.1 µM"),
    ("COc1ccc(COCC(=O)N2CCCC(n3cncn3)C2)cc1 (stereo not given)", "IC50", "> 50.1 µM"),
    ("COc1ccc(CN2CCOC[C@H](OCCC(C)C)C2)cc1", "IC50", "> 50.1 µM"),
    ("CCn1nc(C)c2nc(C)nc(NCCc3ccccc3)c21", "IC50", "> 50.1 µM"),
    ("CN(C)C(=O)CSCC(=O)NCc1ccc(Cl)cc1", "IC50", "> 501 µM"),
    ("COc1cccc([C@@H]2C[C@H]2N)c1", "IC50", "> 501 µM"),
    ("N#CC1(C(=O)NCc2ccccc2F)CC1", "IC50", "> 501 µM"),
    ("NCCCc1cccc(F)c1", "IC50", "> 501 µM"),
    ("Cc1cnn(CCNc2ccc(F)cn2)c1", "IC50", "> 501 µM"),
    ("COc1cccc(CS(=O)(=O)Nc2ccc(C)nc2)c1", "IC50", "> 501 µM"),
    ("N#Cc1cccnc1N1CCOC(c2nccs2)C1 (stereo not given)", "IC50", "> 501 µM"),
    ("Cc1nc(CNC(=O)c2cc(C3CC3)[nH]n2)cs1", "IC50", "> 501 µM"),
    ("CCc1ccccc1CN1C(=O)CCC1=O", "IC50", "> 501 µM"),
    ("NCc1ccc(OC2CCCCC2)nc1", "IC50", "> 501 µM"),
    ("CC(C)(N)C(O)c1ccc(Br)cc1 (stereo not given)", "IC50", "> 501 µM"),
    ("Cc1cc(C(=O)Nc2ccc3c(c2)CCCN3)on1", "IC50", "> 501 µM"),
    ("NC(=O)CCS(=O)(=O)CCN1CCCCCC1", "IC50", "> 501 µM"),
    ("COc1c(F)cc(CN2CC[C@@H](N)[C@H](O)C2)cc1Cl", "IC50", "> 501 µM"),
    ("COc1ccc(S(=O)(=O)N2CCC(Cn3ccnc3)CC2)cc1", "IC50", "> 50.1 µM"),
    ("CCCc1cc(C(=O)N2CCCN(C)CC2)cs1", "IC50", "> 501 µM"),
    ("c1ccc2c(c1)CCN(c1nc(-c3ccncc3)nc3c1CCNC3)C2", "IC50", "> 50.1 µM"),
]

* * *

# method_description: microbe, parasite or virus in culture
# measurement_conditions: Mycobacterium tuberculosis, 96 h, read-out: pIC50 (converted)
Documented IC50 across a set of compounds

# compound, IC50
measured = [
    ("CC(CNCC(F)(F)CO)c1ccccc1 (stereo not drawn)", "> 501 µM"),
    ("CCOc1cc(NCc2ncc(C)o2)ncn1", "> 501 µM"),
    ("CCc1nc2c(NCC3COc4c(cccc4OC)C3)ncnc2o1 (stereo not drawn)", "> 50.1 µM"),
    ("Cc1n[nH]cc1CNCCNc1ncc(Cl)cc1Cl", "> 501 µM"),
    ("Cc1ccc(F)cc1S(=O)(=O)N1C[C@H](C2CC2)[C@@H](N)C1", "> 501 µM"),
    ("O=C(c1cc[nH]n1)N1CCCC(c2cccc(-n3ccnc3)n2)C1 (stereo not drawn)", "> 50.1 µM"),
    ("CC(C)Nc1ncccc1C(=O)Nc1nncs1", "> 501 µM"),
    ("O=C(NCCSC1CCCC1)c1ccccn1", "> 501 µM"),
    ("CN(C)CCN1C(=O)CCC12CCCN(C(=O)c1cccnc1)CC2 (stereo not drawn)", "> 50.1 µM"),
    ("COc1ccc(CNc2ccncc2F)cc1C#N", "> 501 µM"),
    ("Brc1cccc2c1CNCCO2", "> 501 µM"),
    ("CC(C)n1nnnc1SCCS(=O)(=O)c1ccccc1", "164 µM"),
    ("Cc1ccc(-n2nnnc2NCC2CCCO2)cc1 (stereo not drawn)", "119 µM"),
    ("NS(=O)(=O)N1CCN(CCCc2cccc(F)c2)CC1", "> 501 µM"),
    ("CN1CCC(NC(=O)c2coc(Br)c2)CC1=O (stereo not drawn)", "> 501 µM"),
    ("COC(=O)C1CC(c2ccccc2)=NO1 (stereo not drawn)", "> 501 µM"),
    ("CC(=O)Nc1cccc(-c2ccccc2CCN)c1", "> 50.1 µM"),
    ("CN1CCN(C(=O)c2cnsn2)c2ccccc21", "> 501 µM"),
    ("Cc1ccc(C(=O)NCc2ccnc(N(C)C)c2)s1", "> 501 µM"),
    ("CN(C)CCC(=O)c1ccc(F)cc1", "177 µM"),
    ("CC(C)(C)OC(=O)N1CCN(C2CCC(N)CC2)CC1 (stereo not drawn)", "> 501 µM"),
    ("NCc1nc(-c2cccc(C(F)(F)F)c2)no1", "130 µM"),
    ("COc1cccc(OC)c1CNC(Cc1ccsc1)c1ccc(C)cn1 (stereo not drawn)", "12.5 µM"),
    ("CSCCC1c2nc[nH]c2CCN1Cc1[nH]c2ccc(F)cc2c1C (stereo not drawn)", "> 50.1 µM"),
    ("N#Cc1ccc(NCc2cccc(COC3CCOCC3)c2)nc1", "> 50.1 µM"),
    ("O=S1(=O)CCCN1CCNc1ncc(Cl)cc1Cl", "> 501 µM"),
    ("NCC(=O)N(Cc1cccs1)Cc1cccs1", "68.7 µM"),
    ("CC(C)c1cc(C(=O)N2CC(c3ccccn3)C2)no1", "60.5 µM"),
    ("O=C(COC(=O)c1cccs1)NCc1ccco1", "> 501 µM"),
    ("OCCNCCNCc1cccc(Cl)c1Cl", "33.1 µM"),
    ("O=C(NC1CCCNC1)c1coc2ccccc12 (stereo not drawn)", "> 501 µM"),
    ("Cc1ccc(NC(=O)NCCS(=O)(=O)N(C)C)cc1Cl", "401 µM"),
    ("O=C(CCn1cccn1)N1CCCCCC1", "> 501 µM"),
]
